Recorded values, source ChEMBL document CHEMBL1146824.

test system: L1210; test: Inhibition of L1210 cell proliferation; type: functional, cell-based; conditions: Mus musculus
pIC50: −log10 of the molar value.
Outcome Measure: pIC50

1) Cc1nc(C)c(-c2[nH]nc3c2C(=O)c2c(NC(=O)NN4CCN(C)CC4)cccc2-3)s1	6.98

====

biological target: Cyclin-dependent kinase 4/cyclin D1 (Homo sapiens, UniProt P11802); assay: Binding affinity for Cyclin-dependent kinase 4-cyclin D1
Sequence (P11802 whole entry): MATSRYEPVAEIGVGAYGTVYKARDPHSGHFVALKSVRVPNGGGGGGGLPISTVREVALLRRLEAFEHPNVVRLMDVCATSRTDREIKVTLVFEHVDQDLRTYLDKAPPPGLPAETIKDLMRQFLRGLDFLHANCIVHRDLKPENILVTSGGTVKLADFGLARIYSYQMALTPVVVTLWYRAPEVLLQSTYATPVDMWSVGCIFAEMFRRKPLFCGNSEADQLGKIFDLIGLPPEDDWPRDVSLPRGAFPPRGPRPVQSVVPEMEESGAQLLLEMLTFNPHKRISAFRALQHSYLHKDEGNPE
Sequence (P24385 whole entry, further chain): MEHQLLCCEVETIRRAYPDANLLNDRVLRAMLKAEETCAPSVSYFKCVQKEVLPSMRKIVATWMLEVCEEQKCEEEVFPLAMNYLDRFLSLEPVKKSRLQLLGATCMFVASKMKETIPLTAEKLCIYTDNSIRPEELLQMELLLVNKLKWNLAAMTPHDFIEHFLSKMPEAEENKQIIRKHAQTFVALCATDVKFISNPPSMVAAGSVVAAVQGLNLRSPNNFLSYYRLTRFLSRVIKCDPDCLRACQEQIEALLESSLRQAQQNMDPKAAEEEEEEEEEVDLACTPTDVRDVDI
Here, each record is paired with measured IC50 data.
Outcome Measure: IC50 (µM)

1. O=C(Nc1cccc2c1C(=O)c1c(-c3ccc(C(=O)NCCN4CCCC4)s3)n[nH]c1-2)NN1CCOCC1	0.023
2. COc1ccc(-c2[nH]nc3c2C(=O)c2c(NC(=O)NN(C)C)cccc2-3)s1	0.084
3. CN(C)CCNC(=O)c1ccc(-c2[nH]nc3c2C(=O)c2c(NC(=O)NN4CCOCC4)cccc2-3)s1	0.015
